Kindly state melting point for each of the entries shown.
Numbers only, in °C.

# count of solved cases: 4
Ask: GET /values?readout=melting point&item= O=C(NNc1nc2ccccc2n2cccc12)c1c[nH]c2ccccc12 [SC158]
Result: 162.5

Ask: Entry O=C(NNc1nc2ccccc2n2cccc12)c1ccc2cc[nH]c2c1 [SC157] please
Result: 198.5

Ask: Quick one: O=C(NNc1nc2ccccc2n2cccc12)c1cc2ccccc2[nH]1 [SC155]
Result: 186

Ask: What do you have for Cc1cc2nc(NNC(=O)c3cnccn3)c3cccn3c2cc1C [SC143] ?
Result: 116

Would you mind giving melting point for every molecule in the list below?
1. O=C(NNc1nc2ccccc2n2cccc12)c1ccc2[nH]ccc2c1 [SC156]
2. NCCC(=O)NNc1nc2ccccc2n2cccc12 [SC154]
3. O=C(NNc1nc2ccccc2n2cccc12)C1CSCN1 (centres unmarked) [SC153]

Result:
160
164.5
162

====

Tested on: HEY ovarian cancer cells
Assay: MTT cytotoxicity assay, HEY
Format: cell-based, human
Settings: Homo sapiens; HEY ovarian cancer cells; read-out: 50% Cytotoxic concentration (IC50)
measuredMetric: IC50 (µM)
One number for each entry, in µM.

Ask: Record request: IC50 value, item `CCCCCCC(=O)NNC(=O)c1c(O)c2ccccc2n(CCC)c1=O`
Result: 7

Ask: What would you report for `O=C(O)/C=C/C(=O)NNC(=O)c1cc(-c2ccccc2)[nH]n1` ?
Result: 5

Ask: Can you handle `O=C(NNC(=O)c1cccs1)c1ccco1` next?
Result: 15

Ask: # iterate: `COc1ccccc1C(=O)NNC(=O)c1ccc2ccccc2c1O`
Result: 11

Ask: Follow-up entry: `O=C(CCc1ccccc1)NNC(=O)c1ccc2ccccc2c1O`
Result: 5

Ask: Follow-up entry: `Cc1ccc(C(=O)NNC(=O)c2c(O)c3ccccc3[nH]c2=O)cc1`
Result: 13

Ask: Follow-up entry: `CCc1cc2ccc(C)cc2nc1SCC(=O)NNC(=O)c1ccco1`
Result: 6

Ask: Next up: `CCCCCCCC(=O)NNC(=O)c1c(O)c2ccccc2n(CC)c1=O`
Result: 3

Working through the 2 molecules below one at a time, give IC50 for each.
1. O=C(Cc1ccccc1)NNC(=O)c1c(O)c2ccccc2[nH]c1=O
2. O=C(NNC(=O)c1ccccc1O)c1cccs1

Result:
[14, 14]

====

Test system: MDA-MB-435 breast cancer cells
Experiment: MTT cytotoxicity assay, MDA-MB-435
Type: cell-based, human
Settings: Homo sapiens, MTT, 72 h, read-out: IC50
Method: The sensitivity of a panel of seven human cancer cell lines to SC144 was assessed by MTT-assay. […] The sensitivity towards SC144 was time- and dose-dependent. Cytotoxicity was assessed by a 3-(4,5-dimethylthiazol-2-yl)-2,5-diphenyltetrazolium bromide assay as previously described (Carmichael et al. (1987) Cancer Res. 47:936-42). […] After removal of the medium, DMSO was added and the absorbance was read at 570 nm. […]
measuredMetric: IC50

Ask: For the compound shown here, NC(CC(=O)NNc1nc2ccccc2n2cccc12)c1ccc(Cl)cc1 (stereo not shown) [SC161] , give the reported IC50.
Result: 3 µM

Ask: Moving on to NC(CC(=O)NNc1nc2ccccc2n2cccc12)c1ccccc1Cl (stereo not shown) [SC160]
Result: > 20 µM

Ask: Further, for O=C(NNc1nc2ccccc2n2cccc12)c1ccccc1F [SC166] ?
Result: 15 µM

Ask: Try O=C(NNc1nc2ccccc2n2cccc12)C1CSCN1 (stereo not shown) [SC153] next.
Result: > 20 µM

Ask: Further, for O=C(NNc1nc2ccccc2n2cccc12)c1ccc2[nH]ccc2c1 [SC156] ?
Result: > 20 µM

Could I get IC50 for every one of these entries?
1. NC(CC(=O)NNc1nc2ccccc2n2cccc12)c1ccc(C(F)(F)F)cc1 (stereo not shown) [SC165]
2. N#Cc1ccc(C(N)CC(=O)NNc2nc3ccccc3n3cccc23)cc1 (stereo not shown) [SC163]
3. O=C(NNc1nc2cc(F)ccc2n2cccc12)c1cnccn1 [SC144]
4. O=C(NNc1nc2ccccc2n2cccc12)c1cc2ccccc2[nH]1 [SC155]

Result:
1: > 20 µM; 2: > 20 µM; 3: 4 µM; 4: > 20 µM

Values from patent US20110034472A1
